Where these numbers come from: PubChem BioAssay (NCI)

# Tested on: HL-60(TB) leukemia
# assay-explanation: NCI-60 one-dose screen, 48 h (100 = growth as untreated, 0 = no growth, -100 = all killed)
# test-parameters: 10 µM unless noted
The panel holds about 83,000 compounds, 20% with a hit somewhere; the sample as a whole holds those more often.
Let's look at some molecules and their measured growth.
All answers are understood in %, so give the number only.

# example entries with known answers
molecule-smiles: O=C(Nc1ccc(Cl)cc1F)c1cc(F)ccc1O
assay-value: -43.8
//
molecule-smiles: CN(C)CCCN=c1cc2c(=O)n(CCCN(C)C)c(=O)c3c(NCCCN(C)C)cc4c(O)n(CCCN(C)C)c(=O)c1c4c3-2
assay-value: 61.2
//
molecule-smiles: COCCCOc1cc(C[C@@H](C[C@H](N)[C@@H](O)C[C@H](C(=O)NCC(C)(C)C(N)=O)C(C)C)C(C)C)ccc1OC
assay-value: 111
//
molecule-smiles: O=c1ccccc(-c2ccc(-c3ccco3)cc2)c1O
assay-value: -30.3

Next:
Given item "O=C(O)c1ccc2c(c1Cl)C(=O)c1ccccc1C2=O" , the value recorded as its growth is 56.6
